Origin of values: patent US20130039916A1

Entries annotated with measured pKd
Target: T1, non-tagged, non-linked native human IL-23p19/p40 coexpressed in SF9 cells (eBioscience CAT No. 34-8239) (human, UniProt P29460 23-328)
T1 construct: Bought; also called eBioscience human IL-23
T1 sequence 1: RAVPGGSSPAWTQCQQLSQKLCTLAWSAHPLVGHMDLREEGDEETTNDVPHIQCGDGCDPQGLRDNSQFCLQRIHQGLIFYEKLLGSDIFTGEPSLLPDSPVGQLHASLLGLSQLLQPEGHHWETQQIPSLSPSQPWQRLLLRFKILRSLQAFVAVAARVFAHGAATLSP
T1 sequence 2: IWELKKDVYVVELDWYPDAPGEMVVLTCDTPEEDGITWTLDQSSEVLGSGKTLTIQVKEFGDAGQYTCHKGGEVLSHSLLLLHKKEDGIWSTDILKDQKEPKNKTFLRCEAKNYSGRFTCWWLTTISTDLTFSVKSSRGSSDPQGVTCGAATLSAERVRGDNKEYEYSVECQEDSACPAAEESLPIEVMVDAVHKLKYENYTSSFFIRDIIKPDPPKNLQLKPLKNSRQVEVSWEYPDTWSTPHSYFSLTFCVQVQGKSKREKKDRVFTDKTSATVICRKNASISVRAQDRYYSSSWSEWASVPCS
Experiment: KinExA, solution equilibrium
In plain terms, pKd is the concentration in mol/L turned into minus its base-10 logarithm.

mouse anti-human IL-23p19 antibody 13B5 (antibody, V domains shown, also called m13B5) VH: EVQLQQSGPELVKPGASVKMSCKASGYTFTRYLMHWVKQKPGQGLEWIGYINPYNDGTNYNEKFKGKATLTSDKSSSTAYMELSSLTSEDSAVYYCARNWDVGGYWGQGTTLTVSS VL: DIVMTQSPATLSVTPGDRVSLSCRASQSISDYLHWYQQKSHESPRLLIKYASQSISGIPSRFSGSGSGSDFTLSINSVEPEDVGVYYCQNGHSFPFTFGSGTKLEIKR ... 10.26

Ask: // fetch pKd given entry mouse anti-human IL-23p19 antibody 39G2 (antibody, V domains shown, also called m39G2) VH: QVQLQQPGAELVRPGASVKLSCKASGYSFTSSWMNWVKQRPGQGLEWIGMIHPSDSETRTNQKFKDKATLTVDKSSSTAYMQLSSPTSEDSAVYYCARGMITAPTVYWGQGTLVTVSA VL: DIVLTQSPASLAVSLGQRATISCRASKSVSTSAYSYFHWYQQKPGQPPKLLIYLASNLESGVPARFSGSGSGTDFTLNIHPVEEEDAATYYCQHSRELPWTFGGGTKLEITP
Reply: 9.21
